B1: Cytoplasmic polyadenylation element-binding protein 2, residues 513 to 575; numbered along this chain, Q7Z5Q1 (parent)
chain: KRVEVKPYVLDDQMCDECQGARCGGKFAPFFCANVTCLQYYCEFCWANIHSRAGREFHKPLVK

# Variants of: B1
# METHOD: abundance fitness (aPCA) (normalised: wild type 0, dead -1); higher = more abundant; growth selection in yeast, the domain comes from the species named
# EXPERIMENTAL_CONDITIONS: Homo sapiens

# MUTATION_STRING, abundance fitness
measured = [
    ("T36A", 0.007),
    ("Y41V", -0.531),
    ("N48Q", -0.028),
    ("R2C", -0.229),
    ("A28P", -0.208),
    ("Q13R", 0.003),
    ("A33R", -0.124),
]
